All values here come from patent US20070134256A1.

Target: dengue type 1 virus (DENV-1), Western Pacific strain, virions (dengue type 1 virus, UniProt P17763 281-775; P17763 115-280)
Sequence (P17763 281-775 limits assumed, chain 1 of 2): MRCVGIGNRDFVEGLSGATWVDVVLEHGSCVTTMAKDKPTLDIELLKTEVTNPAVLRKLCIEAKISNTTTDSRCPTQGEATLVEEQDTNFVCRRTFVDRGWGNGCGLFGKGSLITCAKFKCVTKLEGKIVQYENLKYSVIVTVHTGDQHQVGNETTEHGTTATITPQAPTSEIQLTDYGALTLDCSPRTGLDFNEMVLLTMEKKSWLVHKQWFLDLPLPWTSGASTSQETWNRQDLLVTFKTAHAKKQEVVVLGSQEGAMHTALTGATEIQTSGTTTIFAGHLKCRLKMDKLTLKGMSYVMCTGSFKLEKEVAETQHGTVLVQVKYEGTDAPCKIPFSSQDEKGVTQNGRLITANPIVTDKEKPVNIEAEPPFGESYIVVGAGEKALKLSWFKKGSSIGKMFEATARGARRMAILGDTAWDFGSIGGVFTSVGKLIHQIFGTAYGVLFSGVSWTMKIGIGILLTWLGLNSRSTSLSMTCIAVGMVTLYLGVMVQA
Sequence (P17763 115-280 limits assumed, chain 2 of 2): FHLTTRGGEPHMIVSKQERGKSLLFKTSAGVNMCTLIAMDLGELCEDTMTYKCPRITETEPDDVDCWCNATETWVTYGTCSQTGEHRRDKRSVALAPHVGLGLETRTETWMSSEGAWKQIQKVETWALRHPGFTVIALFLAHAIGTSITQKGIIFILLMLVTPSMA
Test: ELISA, virion-coated plate, Fab from ~300 µg/ml
value.type: ELISA titer of Fab binding

binder	reported.result
chimpanzee Fab 3C1 (Fab, V domains shown) VH: EVQLLESGAEVKKPGGSVKVSCKVSGGTLSSYGISWVRQAPGQGPEWMGVIIPIRGTANYAQKFQGRVTYTADESTSTVYMELSSLRSEDTAVYYCATGRRGRYPTGSFDYWGQGALVTVSS VL: ELQMTQSPSTLSASVGDRVTVTCRASEDLNKWLAWYQQKPGKAPKLLIYKASSLESGVPSRFSGSGSGTEFTLTISSLQPDDFATYYCQQYQSYPYTFGPGTKLEIKR	1.3 log10 of reciprocal dilution
chimpanzee Fab 3E4 (Fab, V domains shown) VH: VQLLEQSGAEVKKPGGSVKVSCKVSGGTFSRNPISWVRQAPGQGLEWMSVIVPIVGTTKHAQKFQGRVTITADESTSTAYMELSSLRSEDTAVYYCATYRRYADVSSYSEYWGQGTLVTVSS VL: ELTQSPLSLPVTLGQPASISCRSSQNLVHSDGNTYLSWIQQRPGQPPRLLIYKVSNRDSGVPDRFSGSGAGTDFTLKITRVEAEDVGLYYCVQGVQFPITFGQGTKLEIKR	4.61 log10 of reciprocal dilution
